System: PPARg:RXRa 270nM:90nM, anti-RXR (NR concentration 270 nM, RXRa partner concentration 90 nM)
Experiment: PBM binding z-score (relative to random genomic background probes); higher = stronger binding; sequences stand for … in GC…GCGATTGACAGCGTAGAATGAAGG
// label = Fulfilled if PBM binding z-score is not less than 5, otherwise Not fulfilled

Request: Is it the case that GGAACGAGGGCAAAGTAGATAGCATCTGTCGACG has PBM binding z-score reaching or exceeding 5?
Result: Not fulfilled

Request: Now the same for CCTACGGGGCCAAAAAGGTCATTGATGCCGATAA
Result: Not fulfilled

Request: TCCTGTAGATCAACAGGAGGTTAAGAAAGATCGA ?
Result: Not fulfilled

Request: Can you handle TCTGCTAGGTGAACGATGGTCAGCTAATCTGCTA next?
Result: Not fulfilled

Request: Thanks! And CGTCAAAATTCAACTAAGGTAACGTAAAGCACGC ?
Result: Not fulfilled

Request: Likewise for CCACCAAGGTGAACAAGGTCGTTGATTACTATTC ?
Result: Not fulfilled

Request: Now consider ATATGTAGGTTAAGGGTCATCCAGGTTGGTTCGC .
Result: Fulfilled

Request: Proceed to CAAACTAGCTCAAGGTCAAAGTCGGTTTGTGCCA
Result: Not fulfilled

Request: Okay, and ATCTCTAGGTAAAGTTCAATGAAAGATCGATAGA ?
Result: Fulfilled

Request: And CCTACTGGGCCGCGAAAGGTCATTGATTCAGTGA ?
Result: Not fulfilled

Request: Try this sequence next: ACTAGTTGGTCATCTGAGGTCACACACAATTCGG
Result: Not fulfilled

Request: Try this sequence too: TCTTGTCGATCAATAGAGGTTAAGAAAGTGCGCT
Result: Not fulfilled

Request: Further, for GCATATAGGTAATACAAGGTAAAAGTCCGATTGT ?
Result: Not fulfilled

Request: Field entry: TCATATAGGTAAAGGTGAACGTCGAACGATATGA
Result: Not fulfilled

Request: What do we get for CTACCAAGGTGAACAAGGTCCTTGATTACTATTC ?
Result: Not fulfilled

Request: Repeat with GGTGCTAGGTCAACTGATGGTCAGCTAAAGCTCG
Result: Not fulfilled

Request: Please give the result for CGAACTAGGTCAAGAACAGTGAATCTCCGCACGC too.
Result: Fulfilled

Request: And CAAACTAGGTCATCCAGGACAGTGAATACATTGA ?
Result: Fulfilled

Request: Entry CGAACTAGGTCATCAAGGACAGTGAATACATTGA please
Result: Fulfilled

Request: Also check GGAACGAGGGCTTTCGAGTTGATAGCATGGCGAT
Result: Not fulfilled

Request: Repeat for the following sequence: TAGCCTAGGTCAGATCGGTCCAGTATACGCTATA
Result: Not fulfilled

Request: Please give the result for TCTGCTAGGTCAGTTGGTCACCTAACGAGCTGCC too.
Result: Not fulfilled

Request: Would you mind doing CGTCCAAGGTCAAGGTCAGAGAAAGAGACTCGAA as well?
Result: Fulfilled

Request: And for CAAACTAGGGCAAAGGTCAAAGTCGAGCCAACCA ?
Result: Fulfilled

Request: Try this sequence next: ACAGACAGGTGATGTAGGTAACTCAGGCTATCAT
Result: Not fulfilled

Request: And CCTTACGGGTCACGAGGTTATAGCCCGACGAGCG ?
Result: Fulfilled

Request: Another sequence to check: TCTAGCAGGCCAGAGGGTAACTCAAGAGGTACGG
Result: Not fulfilled

Request: And then ATATGTAGGTTAGCTGGGCTCATTCAGACTAGGC , what is it?
Result: Not fulfilled

Request: Try this sequence too: AGAATGAGGTTAAGATGAGGGAAACAGAATACAT
Result: Not fulfilled

Request: Try this sequence next: AATACAGGGTCATCGTAGGCAAGAGTACGCACAG
Result: Fulfilled

Request: Param item: AATACAGGGTCATCATAGGCCAGAGTACGCACAG
Result: Fulfilled

Request: Item: CAAACTAGGTCACCGGAAGGCCAAAGTCCGCATG
Result: Fulfilled

Request: Follow-up item: AGAACGTGGGCAATGAGTTGATAGCACGGGTGGC
Result: Not fulfilled

Request: Another sequence to check: TCATATAGGTGAACAGGTGAAAGTCCGTAAGTTA
Result: Not fulfilled

Request: Repeat with TCAGACAGGTGAAGGTAACTCTGGTACGCAGTCG
Result: Not fulfilled

Request: What would you report for AGAAAGAGGTTATTAAGATCAGGGAATTGCGGTC ?
Result: Not fulfilled

---

For each of the sequences below, state its PBM binding z-score.
Tested on: RARa homodimer (NR concentration 270 nM)
Assay: PBM binding z-score (relative to random genomic background probes); higher = stronger binding; sequences stand for … in GC…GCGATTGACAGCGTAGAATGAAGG
Give a plain numeric answer without units written out.

Request: What value of measured PBM binding z-score is listed for TCATATAGGTAAAAGGAGAAAGTCGGTGTGGTAA ?
Result: 1.29

Request: Thanks! And CGAACGAGGGCAAGAGTTGATAGCAAATGCCGAT ?
Result: -0.216

Request: Same lookup for CCAGACAGGTGAAAGGTAAATCAGTCTGGTACGC , please.
Result: 0.663

---

Hi there, I'd appreciate the recorded PBM binding z-score for every entry that follows.
System: RARa homodimer (NR concentration 270 nM)
Experiment: PBM binding z-score (relative to random genomic background probes); higher = stronger binding; sequences stand for … in GC…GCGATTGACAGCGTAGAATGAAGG
// response body must contain only the number

Request: Item GTAACAAGGTGAATAGGTCGTTGATGAGTAGGCG with RARa homodimer (NR concentration 270 nM) - PBM binding z-score?
Result: 0.797

Request: # iterate: CAAACTAGGTCAAGAGGCCAAAGTCCGCTTCCCG
Result: 0.79

Request: Please answer likewise for TCTCGGAGGACACGAAGGTCAGAGCTTTCCAGAG
Result: -0.212

Request: Ok, now TGGAGTAGGTTAGGGGCATTCAGAATGGCGTCGA
Result: 0.935

Request: Do the same for TCACACAGGTGAAGGTAACTCAGGTACGCAGTCG please
Result: 0.414

Request: Proceed to CCTTATGGGTCACTCCAGGTTATAGCATCGGAGT
Result: 0.657

Request: Try CCGAGTGGGGCAAAGGTTACCATACTCAGTACGA next.
Result: 0.606

---

Tested on: PPARg:RXRa 270nM:90nM, anti-RXR (NR concentration 270 nM, RXRa partner concentration 90 nM)
Assay: PBM binding z-score (relative to random genomic background probes); higher = stronger binding; sequences stand for … in GC…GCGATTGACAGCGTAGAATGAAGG
quantity_name: PBM binding z-score
Respond numerically, and do not add a unit to the figure.

Request: Query: PBM binding z-score; subject: CCGACTGGGCCATAAGGTTACCATAAGCCAGCCC
Result: 2.48

Request: Param item: CCGACTGGGCCAAAAAGGTCATTGATGCCGATAA
Result: 3.47

Request: Ok, now AGAACGAGGGTAATGAGTTGATAGCACGGGTGGC
Result: 0.119

Request: Cool, now ACAGACAGGTGAGTGAAGGTAATTCAGCTGGACG
Result: 0.152

Request: Do the same for CCTTACGAGTCAAGGTTATAGCACGGGTGGTACG please
Result: 0.135

---

Tested on: LXRa:RXRa (NR concentration 270 nM, RXRa partner concentration 90 nM)
Test: PBM binding z-score (relative to random genomic background probes); higher = stronger binding; sequences stand for … in GC…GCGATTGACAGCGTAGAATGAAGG
Output Yes for PBM binding z-score not less than 0.7; output No otherwise.

Request: Threshold query (PBM binding z-score >= 0.7) on CGAACGAGGGCATGAGGTGATAGCAAATGCCGAT
Result: No

Request: Would you kindly repeat that for CCGCGGAGGACAGAAGGTCAGAGCTGTCCGCTTT ?
Result: Yes

Request: Another sequence to look at: TCATATAGGTAAAATGTGAAAGTCGGTGTGGTAA
Result: Yes

Request: Please do the same for CCGATTGGGGCAGAAAGGTTACCATACCATCCGG as well.
Result: No

Request: Follow-up entry: CCTTACGGGTCACTCCAGTTTATAGCATCGGAGT
Result: Yes

Request: TCTAGTTGGTCAATGGTCACACACTCGAAATGCG , same question.
Result: Yes

Request: Same read-out for TCATATAGGTATAGGTGAAAGTCGAACGATATGA ?
Result: No

Request: // same read-out, input: AGTCATAGTTCATCTAGGTAACGTAAGATATGCT
Result: Yes

Request: CCTCGGAGGACAGATGGTCAGAGCTGTCCGCTTT ?
Result: No

Request: Try this sequence next: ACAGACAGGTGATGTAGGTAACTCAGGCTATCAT
Result: No

Request: Next record, please: GTTGCTAGGTCAACTGATGGTCAGCTAAAGCTCG
Result: Yes
